Source of measurements: patent US9850283B2

systemTested: Human PD-L1/PD-1 (Homo sapiens, UniProt Q9NZQ7)
Construct: made in house; host or cells: HEK293T
Sequence (Q9NZQ7 with tags, fused parts or gaps): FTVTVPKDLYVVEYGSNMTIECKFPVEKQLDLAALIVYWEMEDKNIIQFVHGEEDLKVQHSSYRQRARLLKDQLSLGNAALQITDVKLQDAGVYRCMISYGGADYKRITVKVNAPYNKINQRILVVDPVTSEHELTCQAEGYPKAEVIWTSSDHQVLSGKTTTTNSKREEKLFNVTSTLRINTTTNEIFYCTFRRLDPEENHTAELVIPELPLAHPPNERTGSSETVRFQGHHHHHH
methodNotes: HTRF PD-1-Ig/PD-L1-His binding assay (human PD-L1)
setupConditions: cluster symbol; read-out: HTRF IC50 cluster
Positions of bridges follow the written chain, without caps; N, C: chain ends. Non-standard residues stand in square brackets, D forms with d. Residues, ends and D or L forms follow the SMILES beside them. Bta = N[C@@H](Cc1csc2ccccc12)C(=O)O; Hyp = O=C(O)[C@@H]1C[C@@H](O)CN1; NMeE = CN[C@@H](CCC(=O)O)C(=O)O; NMeNle = CCCC[C@H](NC)C(=O)O; NMeA = CN[C@@H](C)C(=O)O; Dab = NCC[C@H](N)C(=O)O; Dap = NC[C@H](N)C(=O)O
propertyMeasured: IC50

QUERY: Provide one value: measured IC50 of CCCC[C@H]1C(=O)N(C)[C@@H](CCCC)C(=O)N[C@@H](CCCNC(=N)N)C(=O)N[C@H](C(=O)NCC(N)=O)CSCC(=O)N[C@@H](Cc2ccc(O)cc2)C(=O)N(C)[C@@H](CCC(=O)O)C(=O)N[C@@H](CC(N)=O)C(=O)N2CCC[C@H]2C(=O)N[C@@H](Cc2cnc[nH]2)C(=O)N[C@@H](CC(C)C)C(=O)N2CCC[C@H]2C(=O)N[C@@H](Cc2c[nH]c3ccccc23)C(=O)N[C@@H](CO)C(=O)N[C@@H](Cc2csc3ccccc23)C(=O)N1C [Example 1191] ({CH2CO}-Y[NMeE]NPHLPWS[Bta][NMeNle][NMeNle]RCG-NH2; thioether N-14)
RESULT: > 30.5 nM

---
QUERY: Provide one value: measured IC50 of CCCC[C@H]1C(=O)N(C)[C@@H](CCCC)C(=O)N[C@@H](CCCNC(=N)N)C(=O)N[C@H](C(=O)NCC(N)=O)CSCC(=O)N[C@@H](Cc2ccc(O)cc2)C(=O)N(C)[C@@H](C)C(=O)N[C@@H](CCN)C(=O)N2CCC[C@H]2C(=O)N[C@@H](CN)C(=O)N[C@@H](CCC(=O)O)C(=O)N2C[C@H](O)C[C@H]2C(=O)N[C@@H](Cc2c[nH]c3ccccc23)C(=O)N[C@@H](CO)C(=O)N[C@@H](Cc2c[nH]c3ccccc23)C(=O)N1C [Example 5131] ({CH2CO}-Y[NMeA][Dab]P[Dap]E[Hyp]WSW[NMeNle][NMeNle]RCG-NH2; thioether N-14)
RESULT: 0.385 to 6.74 nM

====

systemTested: LK35.2-hPD-L1 cells / PE-labeled PD-1-Ig (Homo sapiens, UniProt Q9NZQ7)
Construct: expressed in transfected cells; host or cells: LK35.2 mouse B cell line
Sequence (Q9NZQ7 19-290): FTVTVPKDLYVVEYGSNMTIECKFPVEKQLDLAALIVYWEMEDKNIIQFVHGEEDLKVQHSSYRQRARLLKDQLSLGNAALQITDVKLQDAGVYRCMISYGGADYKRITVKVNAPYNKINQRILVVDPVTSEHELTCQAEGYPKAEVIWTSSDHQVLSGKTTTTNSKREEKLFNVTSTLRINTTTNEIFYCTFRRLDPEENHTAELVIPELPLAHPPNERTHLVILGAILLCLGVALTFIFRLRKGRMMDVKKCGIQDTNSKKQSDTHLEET
methodNotes: LK35.2-hPD-L1 cell binding high-content screening assay
Format: cell-based
setupConditions: cluster symbol; cell line of CBA not given (LK35.2-hPD-L1 or 293T-hPD-L1); read-out: CBA IC50 cluster
Description: LK35.2-hPD-L1 Cell Binding High-Content Screening Assay. Phycoerythrin (PE) was covalently linked to the Ig epitope tag of human PD-1-Ig and fluorescently-labeled PD-1-Ig was used for binding studies with a mouse B cell line (LK35.2) stably over-expressing human PD-L1 (LK35.2-hPD-L1). Briefly, 3×10^3 LK35.2-hPD-L1 cells were seeded into 384 well plates in 20 ul of RPMI supplemented with 10% fetal calf serum and cultured overnight. […]
Positions of bridges follow the written chain, without caps; N, C: chain ends. Non-standard residues stand in square brackets, D forms with d. Residues, ends and D or L forms follow the SMILES beside them. ξ: configuration not given here. Phe(3,5-F2) = N[C@@H](Cc1cc(F)cc(F)c1)C(=O)O; Bip = N[C@@H](Cc1ccc(-c2ccccc2)cc1)C(=O)O; cisHyp = O=C(O)[C@@H]1C[C@H](O)CN1; NMeF = CN[C@@H](Cc1ccccc1)C(=O)O; NMeNle = CCCC[C@H](NC)C(=O)O; ξR = N=C(N)NCCCC(N)C(=O)O; NMeA = CN[C@@H](C)C(=O)O; ξP = O=C(O)C1CCCN1; ξC = NC(CS)C(=O)O; ξS = NC(CO)C(=O)O; Sar = CNCC(=O)O
propertyMeasured: IC50

Worked cases, answers included:
QUERY: State recorded IC50 with LK35.2-hPD-L1 cells / PE-labeled PD-1-Ig (Homo sapiens, UniProt Q9NZQ7), entry CCCC[C@H]1C(=O)N(C)[C@@H](CCCC)C(=O)NC(CCCNC(=N)N)C(=O)NC(C(=O)NCC(N)=O)CSCC(=O)N[C@@H](Cc2ccccc2)C(=O)N(C)[C@@H](C)C(=O)N[C@@H](CC(N)=O)C(=O)N2CCCC2C(=O)N[C@@H](Cc2cnc[nH]2)C(=O)N[C@@H](CC(C)C)C(=O)N(C)CC(=O)N[C@@H](Cc2c[nH]c3ccccc23)C(=O)NC(CO)C(=O)N[C@@H](Cc2ccc(-c3ccccc3)cc2)C(=O)N1C (some centres unmarked) [Example 1028] ({CH2CO}-F[NMeA]N[ξP]HL[Sar]W[ξS][Bip][NMeNle][NMeNle][ξR][ξC]G-NH2; thioether N-14) , no comment.
RESULT: > 74.3 nM

QUERY: State recorded IC50 with LK35.2-hPD-L1 cells / PE-labeled PD-1-Ig (Homo sapiens, UniProt Q9NZQ7), entry CCCC[C@H]1C(=O)N(C)CC(=O)N[C@@H](CC(=O)O)C(=O)N[C@@H](C(C)C)C(=O)N(C)[C@@H](Cc2ccccc2)C(=O)N[C@@H](Cc2ccc(O)cc2)C(=O)N(C)CC(=O)N[C@@H](Cc2c[nH]c3ccccc23)C(=O)N[C@@H](Cc2ccc(O)cc2)C(=O)N[C@@H](CC(C)C)C(=O)N[C@H](C(=O)NCC(N)=O)CSCC(=O)N[C@@H](Cc2cc(F)cc(F)c2)C(=O)N(C)[C@@H](Cc2ccccc2)C(=O)N1C [Example 3143] ({CH2CO}-[Phe(3,5-F2)][NMeF][NMeNle][Sar]DV[NMeF]Y[Sar]WYLCG-NH2; thioether N-13) , no comment.
RESULT: 0.158 to 4.71 nM

QUERY: State recorded IC50 with LK35.2-hPD-L1 cells / PE-labeled PD-1-Ig (Homo sapiens, UniProt Q9NZQ7), entry CCCC[C@H]1C(=O)N(C)CC(=O)N[C@@H](CC(=O)O)C(=O)N[C@@H](C(C)C)C(=O)N(C)[C@@H](Cc2ccccc2)C(=O)N[C@@H](Cc2ccc(O)cc2)C(=O)N(C)CC(=O)N[C@@H](Cc2c[nH]c3ccccc23)C(=O)N[C@@H](Cc2ccc(O)cc2)C(=O)N[C@@H](CC(C)C)C(=O)N[C@H](C(=O)NCC(N)=O)CC=CC(=O)N[C@@H](Cc2ccccc2)C(=O)N(C)[C@@H](Cc2ccccc2)C(=O)N1C , no comment.
RESULT: > 74.3 nM

QUERY: State recorded IC50 with LK35.2-hPD-L1 cells / PE-labeled PD-1-Ig (Homo sapiens, UniProt Q9NZQ7), entry CCCC[C@H]1C(=O)N(C)[C@@H](CCCC)C(=O)N[C@@H](CCCNC(=N)N)C(=O)N[C@H](C(=O)NCC(N)=O)CSCC(=O)N[C@@H](Cc2ccc(O)cc2)C(=O)N(C)[C@@H](C)C(=O)N[C@@H](CC(N)=O)C(=O)N2CCC[C@H]2C(=O)N[C@@H](C)C(=O)N[C@@H](CC(C)C)C(=O)N2C[C@@H](O)C[C@H]2C(=O)N[C@@H](Cc2c[nH]c3ccccc23)C(=O)N[C@@H](CO)C(=O)N[C@@H](Cc2c[nH]c3ccccc23)C(=O)N1C [Example 1142] ({CH2CO}-Y[NMeA]NPAL[cisHyp]WSW[NMeNle][NMeNle]RCG-NH2; thioether N-14) , no comment.
RESULT: 4.78 to 72.9 nM

QUERY: State recorded IC50 with LK35.2-hPD-L1 cells / PE-labeled PD-1-Ig (Homo sapiens, UniProt Q9NZQ7), entry CCCC[C@H]1C(=O)N(C)[C@@H](CCCC)C(=O)N[C@@H](CCCNC(=N)N)C(=O)N[C@H](C(=O)NCC(N)=O)CSCC(=O)N[C@@H](Cc2ccc(O)cc2)C(=O)N(C)[C@@H](C)C(=O)N[C@@H](CC(N)=O)C(=O)N2CCC[C@H]2C(=O)N[C@@H](Cc2cnc[nH]2)C(=O)N[C@@H](CC(C)C)C(=O)N2CCC[C@H]2C(=O)N[C@@H](Cc2c[nH]c3ccccc23)C(=O)N[C@@H](CO)C(=O)N[C@@H](Cc2c[nH]c3ccccc23)C(=O)N1C [Example 1016] ({CH2CO}-Y[NMeA]NPHLPWSW[NMeNle][NMeNle]RCG-NH2; thioether N-14) , no comment.
RESULT: 0.158 to 4.71 nM

QUERY: State recorded IC50 with LK35.2-hPD-L1 cells / PE-labeled PD-1-Ig (Homo sapiens, UniProt Q9NZQ7), entry CCCC[C@H]1C(=O)N(C)[C@@H](CCCC)C(=O)N[C@@H](CCCNC(=N)N)C(=O)N[C@H](C(=O)NCC(N)=O)CSCC(=O)N[C@@H](Cc2ccccc2)C(=O)N(C)[C@@H](C)C(=O)N[C@@H](CC(N)=O)C(=O)N2CCC[C@H]2C(=O)N[C@@H](Cc2cnc[nH]2)C(=O)NCC(=O)N(C)CC(=O)N[C@@H](Cc2c[nH]c3ccccc23)C(=O)N[C@@H](CO)C(=O)N[C@@H](Cc2c[nH]c3ccccc23)C(=O)N1C [Example 1053] ({CH2CO}-F[NMeA]NPHG[Sar]WSW[NMeNle][NMeNle]RCG-NH2; thioether N-14) , no comment.
RESULT: > 74.3 nM

---
QUERY: State recorded IC50 with LK35.2-hPD-L1 cells / PE-labeled PD-1-Ig (Homo sapiens, UniProt Q9NZQ7), entry CCCC[C@H]1C(=O)N(C)[C@@H](CCCC)C(=O)N[C@@H](C)C(=O)N[C@H](C(=O)NCC(=O)O)CSCC(=O)N[C@@H](Cc2ccc(O)cc2)C(=O)N(C)[C@@H](C)C(=O)N[C@@H](CC(N)=O)C(=O)N2CCC[C@H]2C(=O)N[C@@H](Cc2cnc[nH]2)C(=O)N[C@@H](CC(C)C)C(=O)N[C@@H](CCCN)C(=O)N[C@@H](Cc2c[nH]c3ccccc23)C(=O)N[C@@H](CO)C(=O)N[C@@H](Cc2c[nH]c3ccccc23)C(=O)N1C , no comment.
RESULT: > 74.3 nM

QUERY: State recorded IC50 with LK35.2-hPD-L1 cells / PE-labeled PD-1-Ig (Homo sapiens, UniProt Q9NZQ7), entry CCCC[C@H]1C(=O)N(C)[C@@H](CCCC)C(=O)N[C@@H](CCCNC(=N)N)C(=O)N[C@H](C(=O)NCC(N)=O)CSCC(=O)N[C@@H](Cc2ccccc2)C(=O)N(C)[C@@H](C)C(=O)N[C@@H](CC(=O)O)C(=O)N2CCC[C@H]2C(=O)N[C@@H](Cc2cnc[nH]2)C(=O)N[C@@H](CC(C)C)C(=O)N(C)CC(=O)N[C@@H](Cc2c[nH]c3ccccc23)C(=O)N[C@@H](CO)C(=O)N[C@@H](Cc2c[nH]c3ccccc23)C(=O)N1C [Example 1092] ({CH2CO}-F[NMeA]DPHL[Sar]WSW[NMeNle][NMeNle]RCG-NH2; thioether N-14) , no comment.
RESULT: 4.78 to 72.9 nM
